Field: IC50. Provide a value for each of the molecules that follow.
Target: UniProt:Q99250
Sequence (Q99250 whole entry): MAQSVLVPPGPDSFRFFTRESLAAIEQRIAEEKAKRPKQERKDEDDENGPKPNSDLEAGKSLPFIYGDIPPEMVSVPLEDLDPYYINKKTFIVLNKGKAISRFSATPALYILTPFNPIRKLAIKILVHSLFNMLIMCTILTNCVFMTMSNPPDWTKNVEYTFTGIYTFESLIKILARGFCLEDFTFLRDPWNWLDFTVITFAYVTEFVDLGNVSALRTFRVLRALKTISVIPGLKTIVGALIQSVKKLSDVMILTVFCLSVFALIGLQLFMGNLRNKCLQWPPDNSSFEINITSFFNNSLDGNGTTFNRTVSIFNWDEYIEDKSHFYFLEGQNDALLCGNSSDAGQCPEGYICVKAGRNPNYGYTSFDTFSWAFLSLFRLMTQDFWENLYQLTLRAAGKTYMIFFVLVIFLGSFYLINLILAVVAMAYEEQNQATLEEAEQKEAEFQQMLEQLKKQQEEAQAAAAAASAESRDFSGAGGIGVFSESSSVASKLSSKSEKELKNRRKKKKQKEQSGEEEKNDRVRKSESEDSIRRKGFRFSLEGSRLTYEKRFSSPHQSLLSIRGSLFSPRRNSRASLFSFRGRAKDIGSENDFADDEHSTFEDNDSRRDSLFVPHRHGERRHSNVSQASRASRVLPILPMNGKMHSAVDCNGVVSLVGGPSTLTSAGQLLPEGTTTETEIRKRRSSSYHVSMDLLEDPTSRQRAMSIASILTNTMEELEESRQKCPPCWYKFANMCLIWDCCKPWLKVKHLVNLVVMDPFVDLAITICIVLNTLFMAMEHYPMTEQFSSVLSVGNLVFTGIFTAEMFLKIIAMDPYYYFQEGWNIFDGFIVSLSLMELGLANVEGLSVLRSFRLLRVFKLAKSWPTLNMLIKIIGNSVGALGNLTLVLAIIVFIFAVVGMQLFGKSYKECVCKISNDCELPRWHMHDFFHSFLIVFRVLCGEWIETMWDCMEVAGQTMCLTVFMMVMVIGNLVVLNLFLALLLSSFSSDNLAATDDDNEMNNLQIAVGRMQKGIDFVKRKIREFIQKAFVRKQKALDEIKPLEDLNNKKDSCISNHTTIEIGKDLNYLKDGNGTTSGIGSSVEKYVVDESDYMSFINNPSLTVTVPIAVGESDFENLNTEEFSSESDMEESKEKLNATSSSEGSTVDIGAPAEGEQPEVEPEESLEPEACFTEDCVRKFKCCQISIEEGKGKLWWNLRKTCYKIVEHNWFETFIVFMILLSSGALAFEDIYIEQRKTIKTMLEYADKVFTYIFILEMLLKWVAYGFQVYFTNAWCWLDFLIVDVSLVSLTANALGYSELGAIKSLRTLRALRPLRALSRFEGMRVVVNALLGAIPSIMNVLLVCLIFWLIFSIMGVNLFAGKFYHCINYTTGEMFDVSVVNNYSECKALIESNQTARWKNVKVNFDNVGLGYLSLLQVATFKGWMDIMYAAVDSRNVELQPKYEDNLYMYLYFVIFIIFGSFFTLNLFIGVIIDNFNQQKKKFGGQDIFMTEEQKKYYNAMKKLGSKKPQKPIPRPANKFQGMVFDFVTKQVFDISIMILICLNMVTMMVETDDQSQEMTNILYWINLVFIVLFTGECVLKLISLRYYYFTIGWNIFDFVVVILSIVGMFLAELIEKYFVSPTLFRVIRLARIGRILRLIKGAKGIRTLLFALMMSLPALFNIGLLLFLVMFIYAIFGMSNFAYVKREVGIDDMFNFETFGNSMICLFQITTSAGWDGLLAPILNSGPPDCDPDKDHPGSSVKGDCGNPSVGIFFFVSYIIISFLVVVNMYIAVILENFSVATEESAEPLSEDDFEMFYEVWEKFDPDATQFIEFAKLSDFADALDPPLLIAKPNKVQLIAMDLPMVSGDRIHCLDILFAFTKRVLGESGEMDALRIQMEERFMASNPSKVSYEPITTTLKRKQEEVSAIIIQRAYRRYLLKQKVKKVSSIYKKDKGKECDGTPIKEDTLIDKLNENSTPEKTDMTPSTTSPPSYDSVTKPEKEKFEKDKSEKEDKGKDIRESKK
Experiment: NaV1.2 inhibition, automated patch-clamp (Q-Patch HTX), slow inactivated state (state C)
Assay type: cell-based
Settings: hNaV1.2 CHO cells, slow inactivated state; read-out: NaV1.2 IC50

Request: Query: IC50; subject: COc1ccccc1N1CCC2(CCN(CC3CCc4ccccc43)C2)C1 (centres unmarked) [Example 335]
Result: 120 nM

Request: Query: IC50; subject: C1=C(c2ccccc2)COC12CN(CC1CCc3ccccc31)C2 (centres unmarked) [Example 358]
Result: > 10000 nM

Request: Query: IC50; subject: COc1ccc2c(c1)C(CN1CCC(OCc3ccccc3C)CC1)CC2 (centres unmarked) [Example 242]
Result: 230 nM

Request: Query: IC50; subject: c1ccc(OCCN2CCN(c3nsc4ccccc34)CC2)cc1 [Example 70]
Result: 1700 nM

Request: Query: IC50; subject: O[C@H](COC1CCCCC1)CN1CCC2(CCc3ccccc3O2)CC1 [Example 437]
Result: 3410 nM
